experiment: Pharmacokinetic evaluation after single oral administration to ICR mice; assay type: in vivo; details: mouse; ICR mice, single oral dose 5 mg/kg, plasma
Could you mark each record TRUE if its half-life falls strictly under 7 h, and FALSE if it equals or exceeds it?

# compound, classification
measured = [
    ("COc1cc(N2CCC(CN3CCN(CC(=O)N[C@H](C(=O)N4C[C@H](O)CC4C(=O)NCc4ccc(-c5scnc5C)cc4)C(C)(C)C)CC3)CC2)ccc1Nc1ncc(Cl)c(Nc2ccccc2N(C)S(C)(=O)=O)n1 (stereo in doubt)", "FALSE"),
    ("COc1cc(N2CCC(N3CCN(CCC(=O)N[C@H](C(=O)N4C[C@H](O)C[C@@H]4C(=O)NCc4ccc(-c5scnc5C)cc4)C(C)(C)C)CC3)CC2)ccc1Nc1ncc(Cl)c(Nc2ccccc2N(C)S(C)(=O)=O)n1", "FALSE"),
    ("COc1cc(N2CCN(CC3CCN(C(=O)[C@@H](C)Oc4cccc5c4C(=O)N(C4CCC(=O)NC4=O)C5=O)CC3)CC2)ccc1Nc1ncc(Cl)c(Nc2ccccc2N(C)S(C)(=O)=O)n1 (some centres unmarked)", "TRUE"),
    ("COc1cc(N2CCN(CC3CCN(C(=O)COc4cccc5c4C(=O)N(C4CCC(=O)NC4=O)C5=O)CC3)CC2)ccc1Nc1ncc(Cl)c(Nc2ccccc2N(C)S(C)(=O)=O)n1 (centres unmarked)", "TRUE"),
    ("COc1cc(N2CCC(N3CCN(CC(=O)N[C@H](C(=O)N4C[C@H](O)C[C@@H]4C(=O)NCc4ccc(-c5scnc5C)cc4)C(C)(C)C)CC3)CC2)ccc1Nc1ncc(Cl)c(Nc2ccccc2N(C)S(C)(=O)=O)n1", "TRUE"),
    ("COc1cc(N2CCN(CC3CCN(C(=O)COc4cccc5c4C(=O)N(C4CCC(=O)NC4=O)C5=O)CC3)CC2)c(C)cc1Nc1ncc(Cl)c(Nc2ccccc2N(C)S(C)(=O)=O)n1 (centres unmarked)", "TRUE"),
    ("COc1cc(N2CCN(CC3CCN(C(=O)[C@H](C)Nc4cccc5c4C(=O)N(C4CCC(=O)NC4=O)C5=O)CC3)CC2)ccc1Nc1ncc(Cl)c(Nc2ccccc2N(C)S(C)(=O)=O)n1 (some centres unmarked)", "TRUE"),
    ("COc1cc(N2CCC(N3CCN(CC(=O)Nc4cccc5c4CN(C4CCC(=O)NC4=O)C5=O)CC3)CC2)ccc1Nc1ncc(Cl)c(Nc2ccccc2N(C)S(C)(=O)=O)n1 (centres unmarked)", "FALSE"),
]

###

assay: Pharmacokinetic evaluation after single oral administration to ICR mice; format: in vivo; details: mouse; ICR mice, single oral dose 5 mg/kg, plasma
Reported half-life values are given for each entry in this list.

# compound, half-life [h]
measured = [
    ("COc1cc(N2CCC(N3CCN(CCNc4cccc5c4C(=O)N(C4CCC(=O)NC4=O)C5=O)CC3)CC2)ccc1Nc1ncc(Cl)c(Nc2ccccc2N(C)S(C)(=O)=O)n1 (centres unmarked) [Compound 45]", 3.45),
    ("COc1cc(N2CCN(CC3CCN(CC(=O)N[C@H](C(=O)N4C[C@H](O)CC4C(=O)NCc4ccc(-c5scnc5C)cc4)C(C)(C)C)CC3)CC2)ccc1Nc1ncc(Cl)c(Nc2ccccc2N(C)S(C)(=O)=O)n1 (stereo in doubt) [Compound 28]", 6.23),
    ("COc1cc(N2CCC(N3CCN(CCC4CCN(c5ccc6c(c5)C(=O)N(C5CCC(=O)NC5=O)C6=O)CC4)CC3)CC2)ccc1Nc1ncc(Cl)c(Nc2ccccc2N(C)S(C)(=O)=O)n1 (centres unmarked) [Compound 51]", 2.81),
    ("COc1cc(N2CCN(CC3CCN(C(=O)CNc4cccc5c4C(=O)N(C4CCC(=O)NC4=O)C5=O)CC3)CC2)c(C)cc1Nc1ncc(Cl)c(Nc2ccccc2N(C)S(C)(=O)=O)n1 (centres unmarked) [Compound 80]", 3.55),
    ("COc1cc(N2CCC(N3CCN(CC4CCN(c5ccc6c(c5)C(=O)N(C5CCC(=O)NC5=O)C6=O)CC4)CC3)CC2)c(C)cc1Nc1ncc(Cl)c(Nc2ccccc2N(C)S(C)(=O)=O)n1 (centres unmarked) [Compound 76]", 6.66),
]
